# System: Enterococcus sp.
# PROTOCOL TEXT: in vitro antibacterial evaluation, MIC by broth dilution
# Assay type: cell-based
# TEST CONTEXT: Enterococcus faecalis (GC 4553); broth dilution, 18 hours at 35° C.
MIC Enterococcus faecalis (GC 4553) strictly less than 8 µg/mL = y. Otherwise n.

# count of solved cases: 5
CC(C)C(=O)OCC1OC(OC2C(CO)OC(Oc3ccc(CC4NC(=O)C(Cc5ccccc5)NC(=O)CNC(=O)C(CO)NC(=O)C(C(O)C5CNC(=N)N5C5OC(CO)C(O)C(O)C5O)NC(=O)C(C(O)C5CNC(=N)N5)NC4=O)cc3)C(O)C2O)C(O)C(O)C1O (centres unmarked) [Example 283a] = n
CC(c1ccccc1)C1NC(=O)CNC(=O)C(CO)NC(=O)C(C(O)C2CNC(=N)N2C2OC(CO)C(O)C(O)C2O)NC(=O)C(C(O)C2CNC(=N)N2)NC(=O)C(Cc2ccc(OC3OC(CO)C(OC4OC5COC(c6ccc(C(=O)O)cc6)OC5C(O)C4O)C(O)C3O)cc2)NC1=O (centres unmarked) [Example 141] = n
CC(c1ccccc1)C1NC(=O)CNC(=O)C(CO)NC(=O)C(C(O)C2CNC(=N)N2C2OC(CO)C(O)C(O)C2O)NC(=O)C(C(O)C2CNC(=N)N2)NC(=O)C(Cc2ccc(OC3OC(CO)C(OC4OC(COC(=O)OCc5ccccc5)C(O)C(O)C4O)C(O)C3O)cc2)NC1=O (centres unmarked) [Example 101a] = n
CC(c1ccccc1)C1NC(=O)CNC(=O)C(CO)NC(=O)C(C(O)C2CNC(=N)N2C2OC(CO)C(O)C(O)C2O)NC(=O)C(C(O)C2CNC(=N)N2)NC(=O)C(Cc2ccc(OC3OC(CO)C(OC4OC5COC(Cc6ccc(F)cc6)OC5C(O)C4O)C(O)C3O)cc2)NC1=O (centres unmarked) [Example 121] = y
CC(c1ccccc1)C1NC(=O)CNC(=O)C(CO)NC(=O)C(C(O)C2CNC(=N)N2C2OC(CO)C(O)C(O)C2O)NC(=O)C(C(O)C2CNC(=N)N2)NC(=O)C(Cc2ccc(OC3OC(CO)C(OC4OC5COC(c6ccc7ccccc7c6)OC5C(O)C4O)C(O)C3O)cc2)NC1=O (centres unmarked) [Example 145] = y

Request: Answer whether the molecule CC(c1ccccc1)C1NC(=O)CNC(=O)C(CO)NC(=O)C(C(O)C2CN(c3nc4ccccc4o3)C(=N)N2C2OC(CO)C(O)C(O)C2O)NC(=O)C(C(O)C2CNC(=Nc3nc4ccccc4o3)N2)NC(=O)C(Cc2ccc(OC3OC(CO)C(OC4OC(CO)C(O)C(O)C4O)C(O)C3O)cc2)NC1=O (centres unmarked) [Example 93] has MIC Enterococcus faecalis (GC 4553) strictly less than 8 µg/mL
Result: n

Request: Answer whether the molecule CC(C)=CCCC(C)C1OCC2OC(OC3C(CO)OC(Oc4ccc(CC5NC(=O)C(C(C)c6ccccc6)NC(=O)CNC(=O)C(CO)NC(=O)C(C(O)C6CNC(=N)N6C6OC(CO)C(O)C(O)C6O)NC(=O)C(C(O)C6CNC(=N)N6)NC5=O)cc4)C(O)C3O)C(O)C(O)C2O1 (centres unmarked) [Example 125] has MIC Enterococcus faecalis (GC 4553) strictly less than 8 µg/mL
Result: n

Request: Answer whether the molecule CC(c1ccccc1)C1NC(=O)CNC(=O)C(CO)NC(=O)C(C(O)C2CNC(=N)N2C2OC(CO)C(O)C(O)C2O)NC(=O)C(C(O)C2CNC(=N)N2)NC(=O)C(Cc2ccc(OC3OC(CO)C(OC4OC5COC(C67CC8CC(CC(C8)C6)C7)OC5C(O)C4O)C(O)C3O)cc2)NC1=O (centres unmarked) [Example 127] has MIC Enterococcus faecalis (GC 4553) strictly less than 8 µg/mL
Result: y

Request: Answer whether the molecule COc1cc(OC)cc(C2OC3C(OC4C(CO)OC(Oc5ccc(CC6NC(=O)C(C(C)c7ccccc7)NC(=O)CNC(=O)C(CO)NC(=O)C(C(O)C7CNC(=N)N7C7OC(CO)C(O)C(O)C7O)NC(=O)C(C(O)C7CNC(=N)N7)NC6=O)cc5)C(O)C4O)OC(CO)C(O)C3O2)c1 (centres unmarked) [Example 150a] has MIC Enterococcus faecalis (GC 4553) strictly less than 8 µg/mL
Result: n

Request: Answer whether the molecule CC(C)CC(=O)OCC1OC(OC2C(CO)OC(Oc3ccc(CC4NC(=O)C(Cc5ccccc5)NC(=O)CNC(=O)C(CO)NC(=O)C(C(O)C5CNC(=N)N5C5OC(CO)C(O)C(O)C5O)NC(=O)C(C(O)C5CNC(=N)N5)NC4=O)cc3)C(O)C2O)C(O)C(O)C1O (centres unmarked) [Example 283c] has MIC Enterococcus faecalis (GC 4553) strictly less than 8 µg/mL
Result: n

Reference for the values: patent US6914045B2
